Recorded values, source PubChem BioAssay (Tox21).

assay: qHTS assay to identify small molecule antagonists of the estrogen receptor alpha (ER-alpha) signaling pathway using the BG1 cell line (AID 743080); details: BG1Luc4E2 ERE-luciferase antagonist mode, luminescence;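 note: BG1 cells stimulated with 17beta-estradiol alongside compound; nearly all actives have a fitted effect of over 25% in size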
Inconclusive results are not listed. Active and inactive are the calls of the source. Calls come from the whole dose curve.

{"columns": ["MOLECULE", "outcome"],
 "data": [
  ["CCOc1ccc(NC(C)=O)cc1", "inactive"],
  ["NS(=O)(=O)c1cc2c(cc1Cl)NCNS2(=O)=O", "inactive"],
  ["NC(CO)(CO)CO", "inactive"],
  ["NC1CCCCC1", "inactive"],
  ["O=c1[nH]cnc2c1ncn2[C@H]1CC[C@@H](CO)O1", "inactive"],
  ["CN1[C@@H]2CC(OC(=O)[C@H](CO)c3ccccc3)C[C@H]1[C@@H]1O[C@@H]12 (stereo partly drawn)", "inactive"],
  ["O=c1[nH]cc(F)c(=O)[nH]1", "inactive"],
  ["NC(=O)c1cccnc1", "inactive"],
  ["C=C(C)C(=O)OCC(C)O (stereo not drawn)", "inactive"],
  ["COc1ccc2c(c1)c(CC(=O)O)c(C)n2C(=O)c1ccc(Cl)cc1", "inactive"],
  ["C=C1CC[C@H](O)C/C1=C\\C=C1/CCC[C@]2(C)[C@@H]([C@H](C)CCCC(C)C)CC[C@@H]12", "inactive"],
  ["O=C1OC2(c3ccccc31)c1cc(Br)c(O)c(Br)c1Oc1c2cc(Br)c(O)c1Br", "inactive"],
  ["COc1cccc(O)c1O", "inactive"]
]}

----------
biological target: Nuclear receptor subfamily 1 group I member 3 (Homo sapiens); experiment: qHTS assay to identify small molecule antagonists of the constitutive androstane receptor (CAR) signaling pathway (AID 1224838); details: HepG2-CYP2B6-hCAR luciferase, CITCO-stimulated, 24 h; series mostly up to 92.4 µM;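 note: HepG2 cells stably expressing hCAR with CYP2B6 luciferase reporter stimulated by CITCO; nearly all actives have a fitted effect of over 40% in size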
Records with an inconclusive call do not appear. Calls of active or inactive are those of the source. The call rests on the fitted dose curve; in most records, active means well fitted inhibition curve with a large enough effect in the repeat runs; inconclusive means weak or mixed curves, or effect the other way; inactive means no such curve, though single readings can be large or run the other way.
Outcomes: yes (1) = active, no (0) = inactive

{"columns": ["STRUCTURE SMILES", "ASSIGNED LABEL"],
 "data": [
  ["CN1CCC[C@H]1c1cccnc1", "no (0)"],
  ["NS(=O)(=O)O", "no (0)"],
  ["COc1ccc2c(c1)c(CC(=O)O)c(C)n2C(=O)c1ccc(Cl)cc1", "no (0)"],
  ["Cc1cn([C@H]2C=C[C@@H](CO)O2)c(=O)[nH]c1=O", "no (0)"],
  ["CC(C)C(=O)Nc1ccc([N+](=O)[O-])c(C(F)(F)F)c1", "no (0)"],
  ["O=C1O[C@H]([C@@H](O)CO)C(O)=C1O", "no (0)"],
  ["CCCCCCc1ccc(O)cc1O", "no (0)"],
  ["CNNCc1ccc(C(=O)NC(C)C)cc1", "no (0)"],
  ["Cc1ncc([N+](=O)[O-])n1CCO", "no (0)"],
  ["CN[C@H]1CC[C@@H](c2ccc(Cl)c(Cl)c2)c2ccccc21", "no (0)"],
  ["CC(C)c1c(C(=O)Nc2ccccc2)c(-c2ccccc2)c(-c2ccc(F)cc2)n1CC[C@@H](O)C[C@@H](O)CC(=O)O", "no (0)"],
  ["O=S1(=O)OC(c2ccc(O)cc2)(c2ccc(O)cc2)c2ccccc21", "no (0)"],
  ["O=CC(=O)c1ccccc1", "yes (1)"]
]}
